tested on: S. pneumoniae PRC9 (penicillin-hyper resistant strain, PRSP); test: Anti-microbial activities (MIC); format: cell-based; settings: Streptococcus pneumoniae, Sensitivity Disk agar-N+5% Horse blood, 10^6 CFU/ml, read-out: minimum inhibiting concentration (MIC)
measurement.label: MIC (µg/mL)
Supply the numeric figure in µg/mL, leaving out any unit text.

Look up MIC: C[C@@H](O)[C@H]1C(=O)N2C(C(=O)O)=C(SCCN=CN)C[C@H]12 [Compound A, imipenem, reference compound]
0.2

Reported MIC for C[C@@H](O)[C@H]1C(=O)N2C(C(=O)O)=C(c3cn4cncc4s3)C[C@H]12 : what is it?
0.2

Recorded MIC for C[C@@H](O)[C@H]1C(=O)N2C(C(=O)O)=C(c3cn4cncc4s3)[C@H](C)[C@H]12 , please?
0.1

Field request: MIC | item: C[C@@H](O)[C@H]1C(=O)N2C(C(=O)[O-])=C(c3cn4c[n+](C)cc4s3)[C@H](C)[C@H]12
0.05

Recorded MIC for C[C@@H](O)[C@H]1C(=O)N2C(C(=O)O)=C(S[C@@H]3CN[C@H](Cc4cn5c[n+](C)cc5s4)C3)[C@H](C)[C@H]12 [Compound B, reference compound] , please?
0.39

###

experiment: Stability against DHP-I, mouse; assay type: in vitro ADME; conditions: renal dehydropeptidase i, pH 7, 100 μg (titer)/ml, 37° C., HPLC, read-out: residual amount after 3 hours
measurement.label: remaining at 3 h (%)
The response must be a number in % with no trailing unit.

Name the recorded remaining at 3 h for C[C@@H](O)[C@H]1C(=O)N2C(C(=O)O)=C(S[C@@H]3CN[C@H](C(=O)N(C)C)C3)[C@H](C)[C@H]12 [C, meropenem, reference compound] .
18

Data request, read-out remaining at 3 h, for C[C@@H](O)[C@H]1C(=O)N2C(C(=O)[O-])=C(c3cn4c[n+](C)cc4s3)[C@H](C)[C@H]12 [Example 4]
94

I am curious: what remaining at 3 h value has been reported for C[C@@H](O)[C@H]1C(=O)N2C(C(=O)O)=C(SCCN=CN)C[C@H]12 [Compound A, imipenem, reference compound] ?
24

###

system: E. hirae ATCC8043; assay: Anti-microbial activities (MIC); type: cell-based; details: Enterococcus hirae, Sensitivity Disk agar-N+5% Horse blood, 10^6 CFU/ml, read-out: minimum inhibiting concentration (MIC)
Please respond with reported MIC for every item in the list.
Number first, unit second.

// returns reported MIC for input C[C@@H](O)[C@H]1C(=O)N2C(C(=O)[O-])=C(c3cn4c[n+](C)cc4s3)[C@H](C)[C@H]12 [Example 4]
0.78 µg/mL

Please report the recorded MIC for C[C@@H](O)[C@H]1C(=O)N2C(C(=O)O)=C(S[C@@H]3CN[C@H](Cc4cn5c[n+](C)cc5s4)C3)[C@H](C)[C@H]12 [Compound B, reference compound] .
1.56 µg/mL

For the compound shown here, C[C@@H](O)[C@H]1C(=O)N2C(C(=O)O)=C(SCCN=CN)C[C@H]12 [Compound A, imipenem, reference compound] , give the reported MIC.
0.78 µg/mL

# input compound: C[C@@H](O)[C@H]1C(=O)N2C(C(=O)O)=C(c3cn4cncc4s3)C[C@H]12 [Example 8] ; wanted: its MIC
0.78 µg/mL

Give its MIC value. Item: C[C@@H](O)[C@H]1C(=O)N2C(C(=O)O)=C(c3cn4cncc4s3)[C@H](C)[C@H]12 [Example 1]
0.39 µg/mL
